- Read-out: Interleukin-8 (IL8), CXCL8 (gene 3576)
- test.description: BSK_3C_IL8: BioMAP Diversity Plus: 3C Assay for Interleukin-8 (IL8) Biomarker Activity (AID 2283020)
- assay.conditions: primary human endothelial cells (HUVEC); actives raise or lower the signal
The source made the active and inactive calls. How the source made its calls: active means hit-call score of the fitted dose curve at least 0.9, where 1 is the maximum; inactive means score below 0.9.
Select the correct class. Options are active, inactive and nothing else.

# count of solved cases: 5
>  <smiles.text>
OCCCl

>  <class>
inactive

$$$$
>  <smiles.text>
N#CC(Br)(Br)C(N)=O

>  <class>
inactive

$$$$
>  <smiles.text>
CC(C)(OOC(C)(C)c1ccccc1)c1ccccc1

>  <class>
active

$$$$
>  <smiles.text>
COC(=O)c1ccccc1N

>  <class>
inactive

$$$$
>  <smiles.text>
CCC12COCN1COC2

>  <class>
inactive

$$$$

Short answer needed: outcome of this test for Nc1ccc(N=Nc2ccccc2)cc1 ?
inactive

Short answer needed: outcome of this test for Cc1cccc(N)c1N ?
inactive

Short answer needed: outcome of this test for CS(=O)(=O)NC(=O)c1cc(Oc2ccc(C(F)(F)F)cc2Cl)ccc1[N+](=O)[O-] ?
inactive

----------
- test.description: BSK_4H_Eotaxin3: BioMAP Diversity Plus: 4H Assay for Eotaxin 3 Biomarker Activity (AID 2283000)
- assay.conditions: primary human endothelial cells (HUVEC); actives raise or lower the signal
The source made the active and inactive calls. Rule for the calls: active = hit-call score of the fitted dose curve at least 0.9, where 1 is the maximum; inactive = score below 0.9.
Select the correct class. Options are active, inactive and nothing else.

>  <molecule>
[As]#[In]

>  <class>
inactive

$$$$
>  <molecule>
Oc1ccc2ccc3cccc4ccc1c2c34

>  <class>
active

$$$$
>  <molecule>
COC(=O)c1ccccc1N

>  <class>
inactive

$$$$
>  <molecule>
C[N+](C)(C)CC1CO1 (stereo not given)

>  <class>
inactive

$$$$

Short answer needed: outcome of this test for O=C(O)C1C2CCC(O2)C1C(=O)O (stereo not given) ?
inactive

Short answer needed: outcome of this test for Cc1ccc(N=C=O)cc1N=C=O ?
inactive

Short answer needed: outcome of this test for OCCCl ?
inactive

Short answer needed: outcome of this test for ClC1=C(Cl)C2(Cl)C3C(Cl)C=CC3C1(Cl)C2(Cl)Cl (stereo not given) ?
active

Short answer needed: outcome of this test for O=Cc1ccco1 ?
inactive

----------
- test.description: CCTE_Shafer_MEA_acute_burst_percentage_mean: CCTE's Neural Acute Assay for Percentage of Spikes in a Burst, Shafer Lab (AID 2284017)
- Protocol: CCTE_Shafer_MEA_acute assay is conducted using Axion Biosystems 48 well microelectrode array (MEA) plates and Maestro recording system. Each well of the MEA plate contains a grid of 16 microelectrodes embedded in the culture surface. Electrically active cells, such as neurons, can be cultured over the electrodes, and electrical activity in these cells can be recorded extracellularly. […] The average of the burst percentages across electrodes is calculated to report a well-level value. […]
Active and inactive are the calls of the source. Rule for the calls: active = hit-call score of the fitted dose curve at least 0.9, where 1 is the maximum; inactive = score below 0.9.
Select the correct class. Options are y (active), n (inactive) and nothing else.

>  <compound>
CCC(C)c1ccc(O)cc1 (centres undefined)

>  <class>
y

$$$$
>  <compound>
Clc1ccc(C(c2ccc(Cl)cc2)C(Cl)Cl)cc1

>  <class>
y

$$$$
>  <compound>
O=P(OCCCl)(OCCCl)OCCCl

>  <class>
n

$$$$
>  <compound>
[Cl-].[Cl-].[Hg+2]

>  <class>
y

$$$$
>  <compound>
ClC1=C(Cl)[C@]2(Cl)[C@H]3[C@H]([C@@H]4C=C[C@H]3C4)[C@@]1(Cl)C2(Cl)Cl

>  <class>
n

$$$$

Short answer needed: outcome of this test for O=C(N[C@H](c1ccccc1)[C@@H]1CN2CCC1CC2)c1c(Cl)ccc(C(F)(F)F)c1Cl ?
n

Short answer needed: outcome of this test for ClCCOCCCl ?
n

Short answer needed: outcome of this test for CCN(CC)N=O ?
n

Short answer needed: outcome of this test for CCCCCOC(=O)c1ccccc1C(=O)OCCCCC ?
y

Short answer needed: outcome of this test for CCN(CC)CCO ?
n

Short answer needed: outcome of this test for O=[N+]([O-])c1ccc(Oc2ccc(Cl)cc2Cl)cc1 ?
y

Short answer needed: outcome of this test for Cc1cc(N=Nc2ccccc2C)ccc1N ?
y

Short answer needed: outcome of this test for O=C(Oc1ccc(Br)cc1)N1CCN2CCC1CC2 ?
n

Short answer needed: outcome of this test for CC(C)(OOC(C)(C)c1ccccc1)c1ccccc1 ?
n

----------
- test.description: ACEA_AR_antagonist_AUC_viability: ACEA Biosciences xCELLigence Real-Time Cell Analysis on Androgen Receptor Antagonism for Viability (AID 2283776);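 further: 22Rv1 human prostate cancer cells growing on impedance electrode plates; area under impedance growth curve at 80 h after dosing as viability; hits lower the growth signal relative to DMSO meaning cytotoxicity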
Records with an inconclusive call do not appear. The source made the active and inactive calls. The calls were made as follows: active = hit-call score of the fitted dose curve at least 0.9, where 1 is the maximum; inconclusive = response in the unintended direction; inactive = score below 0.9.
Select the correct class. Options are true = active, false = inactive and nothing else.

# count of solved cases: 5
>  <molecule>
CC(C)(O)c1cnn2c(-c3ccc(F)c(-c4c(F)cccc4C#N)c3)cnc2n1

>  <class>
true

$$$$
>  <molecule>
CCCCCCCCCCCCCN1CC(C)OC(C)C1 (stereo unspecified)

>  <class>
false

$$$$
>  <molecule>
CC(C)N(Cc1ccccc1)C(=O)C(C)(C)C

>  <class>
false

$$$$
>  <molecule>
CCCSC(=O)N(CCC)CCC

>  <class>
false

$$$$
>  <molecule>
Cn1cc(-c2ccccc2)c(=O)c(-c2cccc(C(F)(F)F)c2)c1

>  <class>
true

$$$$

In the following, a different molecule is considered.
Short answer needed: outcome of this test for CCCCCCCCn1sccc1=O ?
true

----------
- Read-out: Tissue Factor, F3 (gene 2152)
- test.description: BSK_LPS_TissueFactor: BioMAP Diversity Plus: LPS Assay for Tissue Factor Biomarker Activity (AID 2283084)
- assay.conditions: primary human HUVEC with PBMC; actives raise or lower the signal
Active and inactive are the calls of the source. The calls were made as follows: active = hit-call score of the fitted dose curve at least 0.9, where 1 is the maximum; inactive = score below 0.9.
Select the correct class. Options are active, inactive and nothing else.

>  <compound>
CCOc1cccc(C2(N3CCN(c4ccccc4)CC3)CCC(C)CC2)c1 (centres undefined)

>  <class>
inactive

$$$$
>  <compound>
ClCCOCCCl

>  <class>
inactive

$$$$
>  <compound>
CO[C@@H]1[C@H](OC(=O)NC(=O)CCl)CC[C@]2(CO2)[C@H]1[C@@]1(C)O[C@@H]1CC=C(C)C

>  <class>
inactive

$$$$

Short answer needed: outcome of this test for CN(C)c1ccc(C(=O)c2ccc(N(C)C)cc2)cc1 ?
inactive

Short answer needed: outcome of this test for Brc1ccc(Oc2ccccc2)cc1 ?
inactive

Short answer needed: outcome of this test for CCCCC(CC)COC(=O)c1ccc(C(=O)OCC(CC)CCCC)c(C(=O)OCC(CC)CCCC)c1 (centres undefined) ?
inactive

Short answer needed: outcome of this test for CC(C)(OOC(C)(C)c1ccccc1)c1ccccc1 ?
inactive

Short answer needed: outcome of this test for Nc1ccc(Cl)cc1N ?
inactive

----------
- Read-out: DNA damage-inducible transcript 3 (DDIT3), DDIT3 (gene 1649)
- test.description: LTEA_HepaRG_DDIT3: Life Technologies and Expression Analysis (LTEA) Assay for DNA damage-inducible transcript 3 (DDIT3) using HepaRG (AID 2283488)
- assay.conditions: mRNA level, 48 h; actives raise or lower the signal
Activity calls are given as the source filed them. How the source made its calls: active means hit-call score of the fitted dose curve at least 0.9, where 1 is the maximum; inactive means score below 0.9.
Select the correct class. Options are true (active), false (inactive) and nothing else.

# count of solved cases: 5
>  <smiles.text>
O=[N+]([O-])C(Br)(CO)CO

>  <class>
false

$$$$
>  <smiles.text>
ClCCOCCCl

>  <class>
false

$$$$
>  <smiles.text>
Cn1cc(-c2ccccc2)c(=O)c(-c2cccc(C(F)(F)F)c2)c1

>  <class>
true

$$$$
>  <smiles.text>
CCCCCCCCOC(=O)c1ccc(C(=O)OCCCCCCCC)c(C(=O)OCCCCCCCC)c1

>  <class>
false

$$$$
>  <smiles.text>
O=C(Nc1ccccc1)c1ccccc1I

>  <class>
false

$$$$

In the following, a different compound is considered.
Short answer needed: outcome of this test for CO[C@@H]1[C@H](OC(=O)NC(=O)CCl)CC[C@]2(CO2)[C@H]1[C@@]1(C)O[C@@H]1CC=C(C)C ?
false

----------
- Read-out: E-selectin (Homo sapiens) (UniProt P16581)
- Sequence (P16581 whole entry, looked up): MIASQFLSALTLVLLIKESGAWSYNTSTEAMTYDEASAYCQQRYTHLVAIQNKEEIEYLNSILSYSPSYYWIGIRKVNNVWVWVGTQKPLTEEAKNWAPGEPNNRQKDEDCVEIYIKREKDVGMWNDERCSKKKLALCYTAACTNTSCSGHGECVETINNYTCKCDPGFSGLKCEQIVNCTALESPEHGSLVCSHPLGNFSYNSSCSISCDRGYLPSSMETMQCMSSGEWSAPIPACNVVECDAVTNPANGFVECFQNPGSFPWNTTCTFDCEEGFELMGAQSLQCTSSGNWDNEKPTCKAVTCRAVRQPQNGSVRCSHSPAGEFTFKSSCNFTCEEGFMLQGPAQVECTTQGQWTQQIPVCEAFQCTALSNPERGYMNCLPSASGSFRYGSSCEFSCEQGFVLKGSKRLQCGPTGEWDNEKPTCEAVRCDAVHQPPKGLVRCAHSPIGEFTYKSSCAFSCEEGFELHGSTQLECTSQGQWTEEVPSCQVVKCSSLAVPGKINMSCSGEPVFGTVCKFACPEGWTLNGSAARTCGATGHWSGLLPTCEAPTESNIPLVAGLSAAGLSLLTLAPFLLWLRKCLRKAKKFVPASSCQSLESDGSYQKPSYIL
- test.description: BSK_LPS_Eselectin: BioMAP Diversity Plus: LPS Assay for Eselectin Biomarker Activity (AID 2283077)
- assay.conditions: primary human HUVEC with PBMC; actives raise or lower the signal
The source made the active and inactive calls. How the source made its calls: active means hit-call score of the fitted dose curve at least 0.9, where 1 is the maximum; inactive means score below 0.9.
Select the correct class. Options are T for active, F for inactive and nothing else.

>  <smiles.text>
O=C(N[C@H](c1ccccc1)[C@@H]1CN2CCC1CC2)c1c(Cl)ccc(C(F)(F)F)c1Cl

>  <class>
F

$$$$
>  <smiles.text>
Cc1ccc(N=C=O)cc1N=C=O

>  <class>
F

$$$$
>  <smiles.text>
Cc1cccc(N)c1N

>  <class>
F

$$$$
>  <smiles.text>
ClC1=C(Cl)[C@]2(Cl)[C@H]3[C@H]([C@@H]4C=C[C@H]3C4)[C@@]1(Cl)C2(Cl)Cl

>  <class>
T

$$$$
>  <smiles.text>
CN(C)[C@@H]1C(=O)C(C(N)=O)=C(O)[C@@]2(O)C(=O)C3=C(O)c4c(O)cccc4[C@@](C)(O)[C@H]3C[C@@H]12

>  <class>
F

$$$$
>  <smiles.text>
CCCCCOC(=O)c1ccccc1C(=O)OCCCCC

>  <class>
T

$$$$
>  <smiles.text>
c1ccc2c(c1)oc1ccccc12

>  <class>
F

$$$$
>  <smiles.text>
Oc1ccc2ccc3cccc4ccc1c2c34

>  <class>
T

$$$$

Short answer needed: outcome of this test for C[C@]12C=CC3=C4CCC(=O)C=C4CC[C@H]3[C@@H]1CC[C@@H]2O ?
T

Short answer needed: outcome of this test for CO[C@@H]1[C@H](OC(=O)NC(=O)CCl)CC[C@]2(CO2)[C@H]1[C@@]1(C)O[C@@H]1CC=C(C)C ?
T

Short answer needed: outcome of this test for Clc1ccc(C(c2ccc(Cl)cc2)C(Cl)Cl)cc1 ?
T

Where do the numbers come from? From PubChem BioAssay (EPA / NIEHS).
